Tested on: KM-20L2
Protocol Details: NCI tumour cell line growth inhibition, 48 h
Calls of active or inactive are those of the source. No stated cut-off is given here; in the data, active = GI50 up to about 1.1 µM and inactive = higher.
Outcomes: Y = active, N = inactive

{"columns": ["Molecule", "Answer Label"],
 "data": [
  ["COC(=O)[C@]1(C)CCC[C@]2(C)C3CC4OOC3(C=C4C(C)C)CCC21 (some centres undefined)", "N"],
  ["NC(=O)/C=C/c1c[nH]c2nccnc12", "Y"],
  ["NS(=O)(=O)c1ccc(NC(=O)C2C(=O)C(=O)N(c3ccc(S(N)(=O)=O)cc3)C2=O)cc1 (centres undefined)", "N"],
  ["Cc1cc(C)nc(NS(=O)(=O)c2ccc(NC(=O)c3cccc4c(Nc5ccc(S(=O)(=O)Nc6nc(C)cc(C)n6)cc5)c5ccc(Cl)cc5nc34)cc2)n1", "N"],
  ["O=C1c2c(n(Cc3ccccc3)c(=O)n2Cc2ccccc2)C(=O)N1Cc1ccccc1", "N"],
  ["c1ccc(C2Nc3ccccc3C3OCCCC23)cc1 (centres undefined)", "N"],
  ["CC(=O)OCC1OC(N2C(=O)C(=O)c3cc(C)ccc32)C(OC(C)=O)C(OC(C)=O)C1OC(C)=O (centres undefined)", "N"],
  ["Cc1cc2c(C)nn(Cc3ccccc3)c2c(C(N)=O)c1C", "N"],
  ["Nc1ccc(N)c2c1C(=O)c1ccccc1C2=O", "N"]
]}

====

System: HCC 2998
Protocol Details: NCI tumour cell line growth inhibition, 48 h
The source made the active and inactive calls. No stated cut-off is given here; in the data, active = GI50 up to about 1.1 µM and inactive = higher.
Measured GI50, listed per entry.

{"columns": ["Compound", "Subject Of Test", "GI50"],
 "data": [
  ["Cc1ccc2nc(-c3ccc(-c4nc5ccc(C)cc5o4)c(O)c3)oc2c1", "HCC 2998", "> 100 µM (inactive)"],
  ["O=C1c2c(n(Cc3ccccc3)c(=O)n2Cc2ccccc2)C(=O)N1Cc1ccccc1", "HCC 2998", "61.4 µM (inactive)"],
  ["COc1cc(CC(C)N)ccc1O (stereo unspecified)", "HCC 2998", "> 100 µM (inactive)"],
  ["CCOP(=O)(OCC)C(C)(CC)N/C(N)=N/C#N (stereo unspecified)", "HCC 2998", "> 100 µM (inactive)"],
  ["Cc1nc2c(n1-c1ccccc1)C(=O)c1ccccc1C2=O", "HCC 2998", "39.6 µM (inactive)"],
  ["CC1(C)OC2OC(C(=O)c3ccccc3)C3OC(C)(C)OC3C2O1 (stereo unspecified)", "HCC 2998", "> 100 µM (inactive)"],
  ["C=CCSc1nc2ccccc2c(=O)n1Cc1ccco1", "HCC 2998", "> 100 µM (inactive)"],
  ["Cc1ccccc1CN1CC2=C(CCN(Cc3ccccc3)C2=O)N2CCN=C12", "HCC 2998", "4.06 µM (inactive)"],
  ["COC(=O)C(C/C=C(\\C)c1ccccc1)C(C)=O (stereo unspecified)", "HCC 2998", "> 100 µM (inactive)"],
  ["CCOC(=O)C(Cl)(NC(=O)OCc1ccccc1)C(F)(F)F (stereo unspecified)", "HCC 2998", "> 100 µM (inactive)"],
  ["CN1CCCOC(c2ccc([N+](=O)[O-])cc2)O1 (stereo unspecified)", "HCC 2998", "> 100 µM (inactive)"],
  ["O=c1c2cccnc2[nH]c2ccc3cn[nH]c3c12", "HCC 2998", "> 10 µM (inactive)"],
  ["COC(=O)[C@@H](OC(C)=O)[C@@H](OC(C)=O)c1nnc2ccc(Cl)nn12", "HCC 2998", "36.2 µM (inactive)"],
  ["O=C1OC(c2ccco2)=N/C1=C\\c1ccc(Cl)c(Cl)c1", "HCC 2998", "70.8 µM (inactive)"],
  ["Cc1cc(Cl)ccc1NC(=O)CCCC(=O)C1CCCC1=O (stereo unspecified)", "HCC 2998", "> 100 µM (inactive)"],
  ["Cc1ccc(C(=O)OCC(C)C)cc1/N=N/N(C)C", "HCC 2998", "> 100 µM (inactive)"]
]}

// provenance: ChEMBL document CHEMBL1201862
